# Tgt: T1, orthogonal hCD122 receptor (hoRb), hCD122 with H133D and Y134F (human, UniProt P14784 27-550)
# T1 sequence: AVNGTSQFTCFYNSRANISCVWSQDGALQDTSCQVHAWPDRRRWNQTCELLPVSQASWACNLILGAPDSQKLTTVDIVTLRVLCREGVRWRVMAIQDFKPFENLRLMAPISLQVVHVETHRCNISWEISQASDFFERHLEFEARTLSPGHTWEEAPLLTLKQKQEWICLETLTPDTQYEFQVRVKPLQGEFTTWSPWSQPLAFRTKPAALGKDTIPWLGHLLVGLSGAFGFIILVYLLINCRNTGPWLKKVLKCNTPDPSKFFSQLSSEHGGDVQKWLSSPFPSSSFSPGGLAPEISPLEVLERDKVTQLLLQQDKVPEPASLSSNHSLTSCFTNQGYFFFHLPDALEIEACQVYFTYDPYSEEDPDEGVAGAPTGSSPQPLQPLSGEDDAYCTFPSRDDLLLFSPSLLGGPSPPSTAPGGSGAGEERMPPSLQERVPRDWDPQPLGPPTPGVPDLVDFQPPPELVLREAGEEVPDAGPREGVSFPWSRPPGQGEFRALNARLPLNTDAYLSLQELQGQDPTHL
# Method Description: cell-based or functional assay; also: reference of the scale not given here
Metric Name: Relative Proliferation Fold Change 3F8 1:10 (fold)

>  <Binder>
Q126S, SQVLKA (ligand) APTSSSTKKTQLQLSQLLVLLKAILNGINNYKNPKLTRMLTFKFYMPKKATELKHLQCLEEELKPLEEVLNLAQSKNFHLRPRDLISNINVIVLELKGSETTFMCEYADETATIVEFLNRWITFCSSIISTLT

>  <Value>
3.69

$$$$
>  <Binder>
G27K, SQVLKA (ligand) APTSSSTKKTQLQLSQLLVLLKAILNKINNYKNPKLTRMLTFKFYMPKKATELKHLQCLEEELKPLEEVLNLAQSKNFHLRPRDLISNINVIVLELKGSETTFMCEYADETATIVEFLNRWITFCQSIISTLT

>  <Value>
47.9

$$$$
>  <Binder>
L14W, SQVLKA (ligand) APTSSSTKKTQLQWSQLLVLLKAILNGINNYKNPKLTRMLTFKFYMPKKATELKHLQCLEEELKPLEEVLNLAQSKNFHLRPRDLISNINVIVLELKGSETTFMCEYADETATIVEFLNRWITFCQSIISTLT

>  <Value>
31.8

$$$$
>  <Binder>
L14M, SQVLKA (ligand) APTSSSTKKTQLQMSQLLVLLKAILNGINNYKNPKLTRMLTFKFYMPKKATELKHLQCLEEELKPLEEVLNLAQSKNFHLRPRDLISNINVIVLELKGSETTFMCEYADETATIVEFLNRWITFCQSIISTLT

>  <Value>
34.1

$$$$
